Data provenance is patent US8247211B2.

system: Enterococcus sp.; test: In vitro antibacterial evaluation: minimum inhibitory concentration (MIC), broth dilution method; format: cell-based; conditions: broth dilution, inoculum 5×10^5 CFU/mL, 18 hours at 35° C.
ENDPOINT_NAME: MIC Enterococcus faecalis (GC 2691) (µg/mL)
Record the value in µg/mL, omitting the unit from your answer.

Solved cases below.
compound="CC(C)CC(=O)OC1C(O)C(OC2C(CO)OC(Oc3ccc(CC4NC(=O)C(C(C)c5ccccc5)NC(=O)CNC(=O)C(CO)NC(=O)C(C(O)C5CNC(=N)N5C5OC(CO)C(O)C(O)C5O)NC(=O)C(C(O)C5CNC(=N)N5)NC4=O)cc3)C(O)C2O)OC2COC3(OC21)C1CC2CC(C1)CC3C2 (stereo not shown) [Example 218]" endpoint_name="MIC Enterococcus faecalis (GC 2691)" measure_unit=µg/mL observed_value=4
compound="CC(c1ccccc1)C1NC(=O)CNC(=O)C(CO)NC(=O)C(C(O)C2CNC(=N)N2C2OC(CO)C(O)C(O)C2O)NC(=O)C(C(O)C2CNC(=N)N2)NC(=O)C(Cc2ccc(OC3OC(CO)C(OC4OC(CO)C(OCc5ccc(OCc6ccccc6)cc5)C(O)C4O)C(O)C3O)cc2)NC1=O (stereo not shown) [Example 231a]" endpoint_name="MIC Enterococcus faecalis (GC 2691)" measure_unit=µg/mL observed_value=2
compound="Cc1ccc(Oc2ccc(C3OCC4OC(OC5C(CO)OC(Oc6ccc(CC7NC(=O)C(C(C)c8ccccc8)NC(=O)CNC(=O)C(CO)NC(=O)C(C(O)C8CNC(=N)N8C8OC(CO)C(O)C(O)C8O)NC(=O)C(C(O)C8CNC(=N)N8)NC7=O)cc6)C(O)C5O)C(O)C(O)C4O3)cc2)cc1 (stereo not shown) [Example 174]" endpoint_name="MIC Enterococcus faecalis (GC 2691)" measure_unit=µg/mL observed_value=2

Any idea what its MIC Enterococcus faecalis (GC 2691) is? The compound is CC(c1ccccc1)C1NC(=O)CNC(=O)C(CO)NC(=O)C(C(O)C2CNC(=N)N2C2OC(CO)C(O)C(O)C2O)NC(=O)C(C(O)C2CNC(=N)N2)NC(=O)C(Cc2ccc(OC3OC(CO)C(OC4OC5COC6(OC5C(O)C4O)C4CCCC6CCC4)C(O)C3O)cc2)NC1=O (stereo not shown) [Example 212]
8
